targetSystem: T1, IL-36R naturally expressed on OVCAR8 cells and on normal human epidermal keratinocytes (NHK cells) (human, UniProt Q9HB29 20-575)
T1 sequence (looked up): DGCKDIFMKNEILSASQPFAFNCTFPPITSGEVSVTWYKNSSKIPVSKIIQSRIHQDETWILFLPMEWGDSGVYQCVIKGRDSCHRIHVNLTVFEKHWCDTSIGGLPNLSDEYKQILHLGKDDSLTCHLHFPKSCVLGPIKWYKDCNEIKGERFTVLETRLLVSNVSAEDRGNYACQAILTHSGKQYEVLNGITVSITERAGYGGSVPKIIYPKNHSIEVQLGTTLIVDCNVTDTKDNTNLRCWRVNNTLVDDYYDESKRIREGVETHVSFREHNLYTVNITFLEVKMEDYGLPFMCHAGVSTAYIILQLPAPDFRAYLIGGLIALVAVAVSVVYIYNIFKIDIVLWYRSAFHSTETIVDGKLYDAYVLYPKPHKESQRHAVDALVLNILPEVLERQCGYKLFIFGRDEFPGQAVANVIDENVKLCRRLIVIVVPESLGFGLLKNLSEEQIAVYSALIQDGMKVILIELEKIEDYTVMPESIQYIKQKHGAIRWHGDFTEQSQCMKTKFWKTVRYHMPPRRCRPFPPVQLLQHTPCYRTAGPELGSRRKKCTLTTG
protocol: cell-based or functional assay
Some binders, each annotated with its measured IC50 (M); hIL36β; IL-8 production.
Could you give me the number in M? Just the number is fine.

binder: hz84C4-2.5 (antibody, human IgG4 S228P, kappa, V domains shown, Humanized, human IgG4 / kappa) VH: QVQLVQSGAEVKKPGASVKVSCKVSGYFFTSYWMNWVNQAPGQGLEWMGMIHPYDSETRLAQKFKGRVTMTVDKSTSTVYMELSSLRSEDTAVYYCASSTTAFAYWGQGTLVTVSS VL: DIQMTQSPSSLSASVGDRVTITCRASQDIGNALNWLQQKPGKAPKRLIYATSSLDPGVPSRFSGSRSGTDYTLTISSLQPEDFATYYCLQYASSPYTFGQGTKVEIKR
recordedMeasurement: 7.06e-12
--
binder: hz84C4-2.2 (antibody, human IgG4 S228P, kappa, V domains shown, Humanized, human IgG4 / kappa) VH: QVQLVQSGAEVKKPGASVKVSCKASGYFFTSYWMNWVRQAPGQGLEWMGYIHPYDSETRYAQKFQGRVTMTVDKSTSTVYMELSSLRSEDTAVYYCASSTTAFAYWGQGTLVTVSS VL: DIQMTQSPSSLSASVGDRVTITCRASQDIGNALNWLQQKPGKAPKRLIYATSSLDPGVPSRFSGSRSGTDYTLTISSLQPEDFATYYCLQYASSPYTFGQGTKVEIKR
recordedMeasurement: 8.59e-12

API: the following record is the query input.
Query (binder): hz84C4-2.1 (antibody, human IgG4 S228P, kappa, V domains shown, Humanized, human IgG4 / kappa) VH: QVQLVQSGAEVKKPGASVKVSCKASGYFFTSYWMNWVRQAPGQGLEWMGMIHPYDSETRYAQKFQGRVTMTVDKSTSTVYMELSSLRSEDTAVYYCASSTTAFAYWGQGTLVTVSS VL: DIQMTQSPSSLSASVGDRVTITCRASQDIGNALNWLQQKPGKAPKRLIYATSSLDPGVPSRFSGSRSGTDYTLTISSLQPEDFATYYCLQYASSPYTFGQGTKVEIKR ; field requested: IC50 (M); hIL36β; IL-8 production 5.7e-12
